Attribute: inhibition
target: Rac GTPase-activating protein 1 (Homo sapiens) (UniProt Q9H0H5); assay: blockers of MgcRacGAP-driven Rac1 GTP hydrolysis – biochemical, ADP Hunter fluorescence, primary and confirmatory, confirmation (AID 624330); conditions: MgcRacGAP-stimulated Rac1 GTP hydrolysis, at 30 µM, hits give high values, GST-tagged Rac1 F28L mutant substrate;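 also: fluorescence reports GDP produced by GAP-driven GTP hydrolysis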
Sequence (Q9H0H5 whole entry, looked up): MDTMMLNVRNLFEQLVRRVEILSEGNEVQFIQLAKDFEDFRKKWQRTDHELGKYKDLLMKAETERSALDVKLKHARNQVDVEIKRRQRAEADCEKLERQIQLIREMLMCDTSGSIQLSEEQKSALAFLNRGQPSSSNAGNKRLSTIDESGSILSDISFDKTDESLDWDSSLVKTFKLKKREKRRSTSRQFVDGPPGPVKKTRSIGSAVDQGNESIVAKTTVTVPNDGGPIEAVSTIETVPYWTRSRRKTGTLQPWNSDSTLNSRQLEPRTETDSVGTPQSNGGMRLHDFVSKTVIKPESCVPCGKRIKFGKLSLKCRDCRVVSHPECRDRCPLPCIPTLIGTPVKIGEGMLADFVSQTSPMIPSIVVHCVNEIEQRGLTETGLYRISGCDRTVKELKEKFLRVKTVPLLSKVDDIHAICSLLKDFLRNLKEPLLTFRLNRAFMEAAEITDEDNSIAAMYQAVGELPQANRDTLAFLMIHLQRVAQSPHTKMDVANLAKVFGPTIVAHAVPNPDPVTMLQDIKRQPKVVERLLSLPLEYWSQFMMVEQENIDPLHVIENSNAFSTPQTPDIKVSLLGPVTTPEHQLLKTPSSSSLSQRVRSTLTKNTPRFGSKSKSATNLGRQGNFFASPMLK
Among all 340,000 compounds or so, about 2,100 (0.62%) were called active. A selection follows. Entries with a potency or affinity are not part of this list.
Response body: numeric value in %, unit text excluded.

Answered cases to consult:
| molecule | inhibition (%) |
| --- | --- |
| COc1ccc(Cn2c(=O)sc3ccccc3c2=O)cc1 | 3.77 |
| CCN1C(=O)/C(=C/c2c(C)nn(C)c2C)SC1=S | 0.43 |
| O=C(Cc1nnc(NC(=O)Nc2ccccc2)s1)NCc1ccccc1 | 11.4 |
| O=C(COC(=O)C1CCN(c2ccc(C(F)(F)F)cn2)CC1)NCc1ccccc1 | 2.35 |
| O=C(CCC1CCCN(C(=O)c2cncs2)C1)NCc1ccc(F)c(F)c1 (stereo not given) | 4.71 |

For record CC(=O)Nc1ccc(CN2CCCC(CCC(=O)NCc3ccccc3F)C2)cc1 (stereo not given) the listed inhibition is 3.48

For record "CCn1c(-c2ccccc2)csc1=Nc1ccc(S(=O)(=O)O)cc1" the listed inhibition is 9.33

For record "CCCN(CCC)CCNC(=O)CCC(=O)Nc1ccc2nc(N3CCN(C)CC3)cc(C)c2c1" the listed inhibition is 26.7

For record "O=c1sc2ccccc2c(=O)n1Cc1ccccc1F" the listed inhibition is 7.23

For record "CN1C2CCC1/C(=C\c1ccccc1)C(=O)/C2=C\c1ccccc1" the listed inhibition is 12.8

For record "O=C(N/N=C/c1ccc(C(F)(F)F)cc1)c1ccncc1" the listed inhibition is 5.6

For record "COc1ccc(CN2CCN(C(=O)c3cc(-c4cccnc4)nc4ccc(Cl)cc34)CC2)c(OC)c1OC" the listed inhibition is 0.91

For record "O=C(Nc1ccc(S(=O)(=O)N2CCOCC2)cc1)c1ccc(S(=O)(=O)N2CCOCC2)cc1" the listed inhibition is 0.49

Each recorded value in this set is attributed to PubChem BioAssay AID624330.
